# Tested on: PPARg:RXRa DBDmut IVT, anti-RXR (DBD mutation: RXRa K156A/R161A, NR concentration 270 nM, RXRa partner concentration 90 nM)
# Protocol summary: PBM binding z-score (relative to random genomic background probes); higher = stronger binding; sequences stand for … in GC…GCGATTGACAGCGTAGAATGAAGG
Measure name: PBM binding z-score
Answers are plain numbers.

| Sequence record | PBM binding z-score |
| --- | --- |
| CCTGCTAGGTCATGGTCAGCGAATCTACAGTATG | 4.64 |
| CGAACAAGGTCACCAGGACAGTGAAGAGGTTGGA | 5.38 |
| AATAAAGGGTCATCGTAGGCCAGAGTACGCACAG | 3.16 |

Go through the list and state PBM binding z-score for each entry.
1. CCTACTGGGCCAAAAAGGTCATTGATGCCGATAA
2. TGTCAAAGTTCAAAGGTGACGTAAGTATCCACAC
3. ATCGAAAGGTCGACGCGGTGAGTATACACCGTTT
4. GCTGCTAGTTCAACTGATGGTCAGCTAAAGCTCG
5. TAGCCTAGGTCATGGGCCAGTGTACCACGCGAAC

Result:
3.88
0.732
-0.0451
-0.111
1.74
